Where do the numbers come from? From PubChem BioAssay (NCI).

Each entry below carries its recorded growth.
Tested on: SF-295 CNS
Test: NCI-60 one-dose screen, 48 h (100 = growth as untreated, 0 = no growth, -100 = all killed)
Settings: 10 µM unless noted
Experimental: Cells are grown in 96 well plates and exposed to the test compound for 48 hours. Compounds are tested at a single concentration, which is 10^-5 M for most compounds. The reported endpoint is percent growth (GI% or GIPRCNT), where numbers from 0 - 100% represent growth inhibition, and numbers from -100% - 0 represent cell death. For example, a value of 40 represents 60% growth inhibition. A value of 0 means no net growth occurred over the course of the experiment. […]
Compounds without any hit were thinned out: in the full panel of roughly 83,000, 20% have a hit.
Report as a plain number; the unit % is understood.

Below, each entry is followed by its recorded growth result.
CCCCCC(=C/c1ccccc1)/C=N/N=C(N)N	-64.3
CC(C)OC(=O)[C@H](C)N[P@@](=O)(OC[C@@]1(C)O[C@@H](n2cc(F)c(N)nc2=O)C[C@@H]1O[P@](=O)(N[C@@H](C)C(=O)OC(C)C)Oc1ccccc1)Oc1ccccc1	103
Cc1ncc(C(=O)Nc2ccc(CN3CCN(C)CC3)c(C(F)(F)F)c2)cc1C#Cc1cnc(NC2CC2)c2ncccc12	-91.8
CCOC(=O)C1C(=O)C(=O)N(C(C)C)C1C(=O)OCC (centres undefined)	98.2
COc1nc(OC)nc(-c2cc(-c3cc(OC)c(OC)c(OC)c3)no2)n1	104
O=C(O)CS(=O)c1ccc(Cl)cc1 (centres undefined)	94.9
O=C(/C=C1\C(=O)N(Cc2ccc([N+](=O)[O-])cc2)c2ccccc21)c1ccc(OCCN2CCCC2)cc1	95.6
O=C(/C=C\c1ccccc1Cl)c1ccccc1	75.2

Field: next compound
The value of growth measured for the compound O=C(Nc1ccccc1)Nc1ccc(Nc2ncnc3sc4c(c23)CCCC4)cc1 turned out to be 102

###

system: NCI-H460 lung; assay: NCI-60 one-dose screen, 48 h; settings: 10 µM unless noted
This is part of a sample that, as a whole, favours compounds with a hit. Of some 83,000 tested, about 20% had one in any assay. Calls of active or inactive are those of the source. How the source made its calls: active means growth percent below 10; inactive means the rest.
The reply should be one of these categories: 1.0 (active), 0.0 (inactive)

CC(C)OCC1CO1 (stereo not given)	0.0
Cc1cc2c(-c3nc4ccccc4[nH]3)c(O)c(O)cc2c(O)c1-c1c(C)cc2c(-c3nc4ccccc4[nH]3)c(O)c(O)cc2c1O	1.0
O=C(/C=C/c1c[nH]c2ccccc12)c1cc2ccccc2o1	0.0
CCC(C)(C)c1ccc(OCCCCCCN2CCNCC2)cc1	0.0
CCOC(=O)NC1=NCC(C)(C)S1	0.0
COc1ccc(-c2nc(SCC(C)C)nc(Nc3ccc([N+](=O)[O-])cc3)c2C#N)cc1	0.0

Data request: GET /call?item= CCOc1nc(-c2ccccc2)cc2c(O)c(C(=O)N/N=C/c3ccccc3O)[nH]c(=O)c12 returns the recorded outcome of this test.
Data returned: 0.0

Data request: Hi team, can someone confirm the assay call for O=C(O)CC1Cc2ccccc2C1C(=O)O (stereo not given) ?
Data returned: 0.0

Data request: For N#Cc1c2cccnc2c2nnc3cc(Cl)c(Cl)cc3n12 , what call appears in the results of this test?
Data returned: 0.0

Data request: Outcome logged for O=P(OCCCl)(OCCCl)C(O)c1ccccc1Cl (stereo not given) in this assay:
Data returned: 0.0

Data request: Answer briefly: the call reported for CC(=O)c1nn(-c2ccc(C)cc2)cc1C(=O)c1cc2c(ccc3ccccc32)oc1=O in this assay.
Data returned: 0.0

Data request: Assay result, entry COc1ccc(C(O)(c2ccccc2)C(C(=O)O)c2ccccc2)cc1 (stereo not given) — outcome?
Data returned: 0.0

Data request: So what was the verdict on O=C(CN1CCN(c2cccc(Cl)c2)CC1)N1CCN(c2nnc(-c3ccc(Cl)cc3)c(-c3ccc(Cl)cc3)n2)CC1 in this test?
Data returned: 0.0

Data request: Fill in: this test's call for Nc1cc(N)c2nc(NCCc3ccc(Cl)c(Cl)c3)cnc2c1 is ___
Data returned: 0.0

###

test system: T-47D breast; experiment: NCI-60 one-dose screen, 48 h; conditions: 10 µM unless noted
Compounds without any hit were thinned out: in the full panel of roughly 83,000, 20% have a hit. Activity calls are given as the source filed them. Rule for the calls: active = growth percent below 10; inactive = the rest.
# valid calls are active, inactive; nothing else

Take a look at these entries with their results.
Nc1cc2c(cc1Br)[nH]c(=O)c1ccccc12	inactive
CCOC(=O)/C(C#N)=C(/CC)OCC	inactive
CCOc1ccc(Br)cc1/C=C(\C#N)c1ccc([N+](=O)[O-])cc1	inactive
C=CCNC(=S)NNc1ccc([N+](=O)[O-])cn1	inactive
COc1ccc(C(=O)CN2C(=O)NC(c3ccccc3)(c3ccccc3)C2=O)cc1	inactive
CCCCCCNC(=O)Oc1ccc(/C(=C(/C)Cc2ccc(OC)cc2)c2ccc(OCCN(C)C)cc2)cc1	inactive
CC(C)C(=O)c1ccc(Cl)s1	inactive
CC1CCCCC[N+]12CCCC2 (stereo unspecified)	inactive
O=C(/C=C1\C(=O)N(Cc2ccccc2)c2ccccc21)c1ccc(OCCN2CCCCC2)cc1	active
CCCCCCCCCCCCOC(=O)/C=C\C(=O)NC(N)=O	inactive

Consider now this further molecule.
Data request: Per the records of this test, what outcome belongs to COc1cc2ncnc(Nc3ccc4c(cnn4C(=O)Nc4ccccc4)c3)c2cc1OC ?
Data returned: inactive

###

tested on: HCT-116 colon; experiment: NCI-60 one-dose screen, 48 h (100 = growth as untreated, 0 = no growth, -100 = all killed); details: 10 µM unless noted
This is part of a sample that, as a whole, favours compounds with a hit. Of some 83,000 tested, about 20% had one in any assay.
Measured growth values are reported for all entries that follow.
Write the value in % as a bare number.

Record excerpt, results attached:
COc1cccc2c1nc1cccc(OC)c1[n+]2[O-]	39.3
CCOC(=O)C(C)C(C)(O)c1ccccc1 (stereo not given)	97.1
Clc1ccc(N/N=C(\c2ccccc2)c2ccccn2)nc1	2.71
O=C1c2ccccc2CCc2ccccc21	98.2
CC(=O)OCC1O[C@@H](OC(C)=O)[C@@H](NC(=O)NS(=O)(=O)c2ccccc2)C(OC(C)=O)[C@@H]1OC(C)=O (stereo not given in full)	108
O=C(Nc1ccc(-n2cc(-c3ccncc3)c(-c3ccc(Cl)c(O)c3)n2)cc1)Nc1cc(C(F)(F)F)cc(C(F)(F)F)c1	10.5
CCOc1nc(-c2ccccc2)cc2c(O)c(C(=O)N/N=C/c3ccccc3O)[nH]c(=O)c12	88.3
CCOC(=O)c1csc(-c2ccc(COC(=O)c3ccccc3)o2)n1	99.8
Clc1ccc(N/N=C/c2ccccn2)nc1	11.1

Quick note, growth for Cc1nc2c(nnn2-c2ccccc2)c2nc(-c3ccc(Cl)cc3)oc(=O)c12 landed at 109

###

test system: HCT-116 colon; test: NCI-60 one-dose screen, 48 h (100 = growth as untreated, 0 = no growth, -100 = all killed); details: 10 µM unless noted
Compounds without any hit were thinned out: in the full panel of roughly 83,000, 20% have a hit.
Returns 1.0 if the recorded growth is greater than or equal to 90%, and 0.0 otherwise.

Data request: # check: growth of COc1ccccc1Cn1cc2c(c1)-c1oncc1CC2 is greater than or equal to 90%
Data returned: 0.0

Data request: Test whether the molecule O=C(Nc1ccc(-n2cc(-c3ccncc3)c(-c3ccc(Cl)c(O)c3)n2)cc1)c1ccc(Cl)c(Cl)c1 records growth of 90% or higher.
Data returned: 0.0

Data request: State whether the measured growth reaches 90%, counting equality as reaching it, for CCOC(=O)CSSCC(=O)OCC
Data returned: 1.0

Data request: Hi, just wondering whether COC(=O)C1CC(=O)N(C(=O)Nc2ccc(Cl)cc2Cl)C1 (stereo unspecified) shows growth of 90% or higher.
Data returned: 1.0

###

tested on: LOX IMVI melanoma; test: NCI-60 one-dose screen, 48 h; conditions: 10 µM unless noted
The panel holds about 83,000 compounds, 20% with a hit somewhere; the sample as a whole holds those more often. Calls of active or inactive are those of the source. How the source made its calls: active means growth percent below 10; inactive means the rest.
Returns: one label drawn from active, inactive

Here's what some known entries look like.
CC(O)C(N)=O (stereo unspecified)	inactive
CC1(C)C(O)NC(Cl)=C(C#N)C1(C#N)C#N (stereo unspecified)	inactive
CCCCN(CCCC)CCCNc1c2c(nc3ccc(Cl)cc13)CCCC2	inactive
CC(O)c1cc[cH-]c1.[Fe+2].c1cc[cH-]c1 (stereo unspecified)	inactive
CC(=O)Nc1ccc(C(=O)/C=C/c2ccc(N(C)C)cc2)cc1	inactive
CC(C)OC(=O)c1ccc2n1CCCc1cnc(Nc3ccccc3)nc1-2	inactive
O=C1C(=O)c2ccccc2C(O)=C1CCCc1ccc(C2CCCC2)cc1	active
NCCCOc1cc2ccccc2cc1C(=O)Nc1ccc(Cl)cc1OC(=O)c1cc2ccccc2cc1OCCCN	active
COc1cc(-c2nc(/C=C3/C(=O)Nc4ccccc43)c3ccccn23)cc(OC)c1OC	inactive
OC(c1ccccc1)(c1ccccc1)C(F)(F)F	inactive

Data request: Tell me the assay call for CCN(CC)CCCNc1c2ccc(Cl)cc2nc2ccc(OC)cc12 please.
Data returned: active
